Target: UniProt:P09917
Sequence (P09917 whole entry): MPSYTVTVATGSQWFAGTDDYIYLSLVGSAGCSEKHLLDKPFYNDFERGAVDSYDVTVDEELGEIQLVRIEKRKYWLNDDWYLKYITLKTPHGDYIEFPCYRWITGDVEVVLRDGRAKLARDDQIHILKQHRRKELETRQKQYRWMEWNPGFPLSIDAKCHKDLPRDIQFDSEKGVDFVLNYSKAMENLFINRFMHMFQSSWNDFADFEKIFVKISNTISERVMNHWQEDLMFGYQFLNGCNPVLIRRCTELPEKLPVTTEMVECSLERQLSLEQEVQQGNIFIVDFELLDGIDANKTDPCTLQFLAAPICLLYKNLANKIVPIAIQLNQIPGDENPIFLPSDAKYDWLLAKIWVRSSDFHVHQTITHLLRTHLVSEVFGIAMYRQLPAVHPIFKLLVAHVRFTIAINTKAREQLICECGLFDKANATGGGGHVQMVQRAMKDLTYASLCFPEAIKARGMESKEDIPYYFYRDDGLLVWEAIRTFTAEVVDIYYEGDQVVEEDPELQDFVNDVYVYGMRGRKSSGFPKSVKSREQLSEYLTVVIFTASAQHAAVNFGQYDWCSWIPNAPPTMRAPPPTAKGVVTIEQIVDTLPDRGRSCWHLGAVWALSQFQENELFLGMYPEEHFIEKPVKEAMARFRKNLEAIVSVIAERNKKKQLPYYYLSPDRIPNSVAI
Assay: Inhibition of human recombinant 5-lipoxygenase assessed as arachidonic acid oxidation
READOUT NAME: IC50

// known answers, use as guide
# MOLECULE, SYSTEM NAME, IC50
measured = [
    ("CCC(O)(c1cn(Cc2ccc3c(-c4ccccc4)c(C(C)O)sc3c2)nn1)C(F)(F)F (stereo not given)", "UniProt:P09917", "88 nM"),
    ("CCC(O)(c1cn(Cc2ccc3c(-c4ccccc4)c(CO)sc3c2)nn1)C(F)(F)F (stereo not given)", "UniProt:P09917", "19 nM"),
]

# get_value(readout='IC50', item= CCC(O)(c1cn(Cc2ccc3c(-c4ccccc4)c(C(C)=O)sc3c2)nn1)C(F)(F)F (stereo not given) )
11 nM

Same for CCC(O)(c1cn(Cc2ccc3c(-c4ccccc4)c(C(N)=O)sc3c2)nn1)C(F)(F)F (stereo not given)
55 nM

Same for CCC(O)(c1cn(Cc2ccc3c(-c4ccccc4)c(C(=O)OC)sc3c2)nn1)C(F)(F)F (stereo not given)
7.9 nM

----------
Experiment: Half life in rhesus monkey at 5 mg/kg, iv and 4 mg/kg, po
Type: ADME, organism-based, Macaca mulatta
Conditions: in vivo
READOUT NAME: half-life

# get_value(readout='half-life', item= CC[C@](O)(c1cn(Cc2ccc3c(-c4ccc(F)cc4)c(C(N)=O)sc3c2)nn1)C(F)(F)F )
22 h

----------
Test: Oral bioavailability in dog at 4 mg/kg
Format: ADME, organism-based, Canis lupus familiaris
Conditions: in vivo
READOUT NAME: bioavailability (%)
Enter your answer as a number in %; do not include the unit.

# get_value(readout='bioavailability', item= CC[C@](O)(c1cn(Cc2ccc3c(-c4ccc(F)cc4)c(C(N)=O)sc3c2)nn1)C(F)(F)F )
120

----------
Target: Polyunsaturated fatty acid 5-lipoxygenase (Homo sapiens)
Sequence (P09917 whole entry): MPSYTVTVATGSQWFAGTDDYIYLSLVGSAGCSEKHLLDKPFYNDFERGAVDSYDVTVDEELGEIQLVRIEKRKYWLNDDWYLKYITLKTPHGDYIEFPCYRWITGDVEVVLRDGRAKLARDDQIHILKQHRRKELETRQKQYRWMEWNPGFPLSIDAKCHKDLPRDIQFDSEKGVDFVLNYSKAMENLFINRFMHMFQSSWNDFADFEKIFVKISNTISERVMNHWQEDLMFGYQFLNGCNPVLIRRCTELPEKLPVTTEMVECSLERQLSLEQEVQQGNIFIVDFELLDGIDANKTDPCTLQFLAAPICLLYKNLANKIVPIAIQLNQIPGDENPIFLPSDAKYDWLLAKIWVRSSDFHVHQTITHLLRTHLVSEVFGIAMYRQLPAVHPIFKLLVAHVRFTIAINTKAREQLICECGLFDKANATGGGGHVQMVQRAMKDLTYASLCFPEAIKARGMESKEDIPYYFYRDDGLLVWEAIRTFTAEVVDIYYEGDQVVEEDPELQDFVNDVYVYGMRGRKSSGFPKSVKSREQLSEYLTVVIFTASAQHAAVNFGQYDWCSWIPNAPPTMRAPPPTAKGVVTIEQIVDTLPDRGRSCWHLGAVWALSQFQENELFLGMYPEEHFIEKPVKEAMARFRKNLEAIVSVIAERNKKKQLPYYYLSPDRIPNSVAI
Test: Inhibition of human recombinant 5-lipoxygenase assessed as arachidonic acid oxidation
READOUT NAME: log10 of IC50 (log10 of the value in nM)
A difference of one corresponds to tenfold IC50; all values are log10 with IC50 in nM.

# COMPOUND, log10 of IC50
data = [
    ("CCC(O)(c1cn(Cc2ccc3c(-c4ccccc4)c(C(=O)N(C)C)sc3c2)nn1)C(F)(F)F (stereo not given)", 3.28),
]

# get_value(readout='log10 of IC50', item= CCC(O)(c1cn(Cc2ccc3c(-c4ccccc4)csc3c2)nn1)C(F)(F)F (stereo not given) )
1.60

Same for CCC(O)(c1cn(Cc2ccc3c(-c4ccccc4)c(C(C)(C)O)sc3c2)nn1)C(F)(F)F (stereo not given)
2.30

Same for CC[C@](O)(c1cn(Cc2ccc3c(-c4ccccc4)c(C(N)=O)sc3c2)nn1)C(F)(F)F
1.45

Same for CC[C@](O)(c1cn(Cc2ccc3c(-c4ccc(F)cc4)c(C(N)=O)sc3c2)nn1)C(F)(F)F
1.74

----------
Assay: Half life in dog at 5 mg/kg, iv and 4 mg/kg, po
Assay type: ADME, organism-based, Canis lupus familiaris
Conditions: in vivo
READOUT NAME: half-life (h)
Enter your answer as a number in h; do not include the unit.

# get_value(readout='half-life', item= CC[C@](O)(c1cn(Cc2ccc3c(-c4ccc(F)cc4)c(C(N)=O)sc3c2)nn1)C(F)(F)F )
29

----------
Target chain: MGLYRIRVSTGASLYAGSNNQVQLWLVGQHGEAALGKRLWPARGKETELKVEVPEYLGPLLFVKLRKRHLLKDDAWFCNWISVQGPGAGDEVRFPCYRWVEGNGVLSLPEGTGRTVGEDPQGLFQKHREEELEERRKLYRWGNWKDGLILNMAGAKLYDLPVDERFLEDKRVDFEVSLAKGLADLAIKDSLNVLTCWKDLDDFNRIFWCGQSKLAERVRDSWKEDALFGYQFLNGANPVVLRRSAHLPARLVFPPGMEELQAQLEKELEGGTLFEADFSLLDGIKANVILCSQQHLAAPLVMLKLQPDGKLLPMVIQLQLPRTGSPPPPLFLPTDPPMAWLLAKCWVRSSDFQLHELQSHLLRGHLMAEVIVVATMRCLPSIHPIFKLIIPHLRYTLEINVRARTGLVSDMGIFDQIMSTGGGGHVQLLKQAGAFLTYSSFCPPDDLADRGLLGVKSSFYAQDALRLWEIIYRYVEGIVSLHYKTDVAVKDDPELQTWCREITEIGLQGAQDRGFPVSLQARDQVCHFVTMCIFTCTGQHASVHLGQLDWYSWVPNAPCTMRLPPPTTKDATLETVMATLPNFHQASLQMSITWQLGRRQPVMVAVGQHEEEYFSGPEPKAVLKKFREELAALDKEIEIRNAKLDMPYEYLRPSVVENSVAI
pIC50: −log10 of the molar value.
READOUT NAME: pIC50

# get_value(readout='pIC50', item= CC[C@](O)(c1cn(Cc2ccc3c(-c4ccc(F)cc4)c(C(N)=O)sc3c2)nn1)C(F)(F)F )
< 4.70

----------
Assay: Cmax in rhesus monkey at 5 mg/kg, iv and 4 mg/kg, po
Format: ADME, organism-based, Macaca mulatta
Conditions: in vivo
READOUT NAME: Cmax (nM)
Enter your answer as a number in nM; do not include the unit.

# get_value(readout='Cmax', item= CC[C@](O)(c1cn(Cc2ccc3c(-c4ccc(F)cc4)c(C(N)=O)sc3c2)nn1)C(F)(F)F )
1400

----------
Molecular target: Polyunsaturated fatty acid 5-lipoxygenase (Homo sapiens)
Assay: Inhibition of 5-lipoxygenase in human whole blood assessed as inhibition of LTB4 production
Assay type: tissue-based
READOUT NAME: log10 of IC50 (log10 of the value in nM)
A difference of one corresponds to tenfold IC50; all values are log10 with IC50 in nM.

Form entry - test system: Polyunsaturated fatty acid 5-lipoxygenase (Homo sapiens); read-out: log10 of IC50; compound: CC[C@](O)(c1cn(Cc2ccc3c(-c4ccc(F)cc4)c(C(N)=O)sc3c2)nn1)C(F)(F)F
1.32

Same for CCC(O)(c1cn(Cc2ccc3c(-c4ccccc4)c(C(=O)NC)sc3c2)nn1)C(F)(F)F (stereo unspecified)
2.42

Same for CCC(O)(c1cn(Cc2ccc3c(-c4ccccc4)c(C(C)O)sc3c2)nn1)C(F)(F)F (stereo unspecified)
2.21

Same for CCC(O)(c1cn(Cc2ccc3c(-c4ccccc4)c(C(C)(C)O)sc3c2)nn1)C(F)(F)F (stereo unspecified)
2.59

Same for CC[C@@](O)(c1cn(Cc2ccc3c(-c4ccc(F)cc4)c(C(N)=O)sc3c2)nn1)C(F)(F)F
2.19

Same for CCC(O)(c1cn(Cc2ccc3c(-c4ccccc4)c(C(N)=O)sc3c2)nn1)C(F)(F)F (stereo unspecified)
1.85
